# tested target: T1, RSV F subtype A, furin-cleaved ectodomain stabilized in the prefusion conformation (DS-Cav1) (Respiratory syncytial virus subtype A, UniProt P03420 26-524)
# T1 construct: extracellular domain; Trimeric soluble antigen; also called Prefusion subtype A
# procedure details: BLI, IgG on AHQ sensor, 100 nM antigen
pKd: −log10 of the molar value.
pKd below 9 gives not satisfied; pKd at or above it gives satisfied.

Completed entries (count: 3):
binder	group
ADI-18899 (antibody, V domains shown, full-length IgG from yeast) VH: EVQLVESGGGVVQSGRSLRLSCAASGFTFSDNGMHWVRQAPGKGLEWVAGIFYDGSNKQYADSVKGRFTISRDNSKSTLYLQMNSLRAEDTAVYYCARAPYDIWSGYCLDYWGQGTLVTVSS VL: DIRLTQSPATLSMSPGERATLSCRASQSVNNNLAWYQQRPGQAPRLLIYGASTRATGIPARFSGSGSETEFTLTISSLQSEDFAVYHCQQYSIWPQTFGQGTKVDIK	not satisfied
ADI-18892 (antibody, V domains shown, full-length IgG from yeast) VH: QVQLVQSGAEVKEPGASVRVSCKASGYTFTSYGISWVRQAPGQGLEWMGWISAYNGNTNYAQKFQGRVTVTTDTSTSAAYMELRSLRSDDTAIYYCARDSFSLTGAGFPDYWGQGTLVTVSS VL: EIVMTQSPLSLPVTLGQPASISCRSSQSLVYSDGNTYLNWFQQRPGQSPRRLIYKVSNRDSGVPDRFSGSGSDTDFTLKISRVEAEDVGVYYCMQATQWPRTFGQGTKVEIK	satisfied
ADI-18921 (antibody, V domains shown, full-length IgG from yeast) VH: QVQLVQSGSEVKKPGASVRLSCKVAGYSLSELSMHWVRQSPGKGLEWLGAFDHEDAEAIYAPRFQGRITMTADTSTDTAYMELSSLRSEDTAVYYCATPTPVGATDYWGQGTLVTVSS VL: DIQMTQSPSSLSASVGDRVTITCRASQSISSYLNWYQQKPGKAPKLLIYAASSLQRGGPSRFSGSGSGTDFTLTISSLQPEDFATYYCQQSYIIPYTFGQGTKVDIK	not satisfied

Kindly consider the entry below.
Identify whether the reported pKd of the following binder is 9 or greater: ADI-18969 (antibody, V domains shown, full-length IgG from yeast; also called Antibody Number 317; Ab # 317) VH: QVQLVQSGPEVKKPGASVTVSCKASGYTFSHYGISWVRQAPGQGLEWMGWISAYHGQTNYAQNFQGRVTMTTDTSSNTAYMEVRSLRSDDTAVYFCARDVFSKTAARIFDYWGQGTLVTVSS VL: EIVLTQSPLSLPVTLGQPASISCRSSQSLEYSDGNTYLSWFQQRPGQSPRRLIYKVSNRDSGVPDRFSGSQSGTDFTLKISRVEAEDVGVYYCMQATDWPVTFGQGTKLEIK
satisfied
